Molecular target: human glucagon receptor (human, UniProt P47871 26-477)
Test: cell-based or functional assay
Ends that are not written are not given here.
metric: cAMP EC50

**Query** Consider the binder IP411 (Fc fusion) YGEGTFTSDYSKLLEEEAVRLFIEWLVKGPGGGGGGGGGGGGGGGGGGGGACPPC and give its measured cAMP EC50.
**Result** > 0.631 µM

---
**Query** Please report the recorded cAMP EC50 for IP237 (Fc fusion) YSEGTFTSDYSKLLEEEAVRLFIEWLVKGPGGGGGSGGGGSGGGGSGGGGSATHTCPPCPAPEF .
**Result** > 1.8 µM

**Query** Entry IP390 (Fc fusion) YSEGTFTSDYSKLLEEEAVRLFIEWLVKGPGGGGGSGGGGSGGGGSGGGGSGGGGSACPPC : reported cAMP EC50 = ?
**Result** > 0.218 µM

**Query** What does the data say about its cAMP EC50? Entry: IP212 (Fc fusion) YSEGTFTSDYSKLLEEEAVREFIAWLVKGPAAAGGSGSTASSGSGSATGGGGAATHTCPPCPAPEF
**Result** > 4 µM

**Query** Could you share which cAMP EC50 value was measured for IP261 (Fc fusion) YSEGTFTSDYSKLLEEEAVRLFVEWLVKGPGGGGGSGGGGSGGGGSGGGGSATHTCPPCPAPEF ?
**Result** > 2.4 µM

**Query** Field request: cAMP EC50 | item: IP236 (Fc fusion, cysteine pairing not given here; also: fused to IgG1-TM Fc) YSEGTFTSDYSKLLEEEAVRLFIEWLVKGPGGGGGSGGGGSGGGGSATHTCPPCPAPEF
**Result** > 5.5 µM
